Recorded values, source patent US20250059172A1.

molecular target: human mPGES-1 (Homo sapiens (Human)); assay: mPGES-1 inhibitory activity test; format: biochemical; conditions: microsomes of CHO-K1 cells expressing human mPGES-1, PGH2 1 μM, PGE2 by HTRF; read-out: mPGES-1 inhibition (IC50 nM)
Sequence (O14684 whole entry): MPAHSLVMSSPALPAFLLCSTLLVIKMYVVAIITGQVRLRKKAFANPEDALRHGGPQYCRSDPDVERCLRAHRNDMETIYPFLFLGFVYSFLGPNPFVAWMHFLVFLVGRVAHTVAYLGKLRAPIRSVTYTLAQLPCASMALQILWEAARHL
The reader will find reported IC50 values listed item by item below.
Record the value in nM, omitting the unit from your answer.

CC(C)(C)C(=O)NCc1ccc(Cl)c(C(=O)Nc2cccc3c2cnn3-c2cscn2)c1: 1.5

I would be grateful if you could share the reported IC50 for O=C(Nc1cccc2c1cnn2-c1ccc(C(F)(F)F)cc1)c1cc(CNC(=O)C2CC2)ccc1Cl .
1.5

----------
tested on: human A549 cells; experiment: Inhibition test of PGE2 production using human A549 cells; assay type: cell-based; settings: IL-1β stimulated A549 cells, 24 h, PGE2 by HTRF, read-out: A549 cell inhibition of PGE2 production IC50
pIC50: −log10 of the molar value. Structures can show the parent of a compound that is named as a salt.
Parameter threshold = 8. Response is 1 (yes) when pIC50 meets or exceeds it, else 0 (no).

Answered cases to consult:
O=C(Nc1cccc2c1cnn2-c1ccc(C(F)(F)F)cc1)c1cc(CNC(=O)C2CC2)ccc1Cl: 1 (yes)
COc1cc(-n2ncc3c(NC(=O)c4cc(CNC(=O)C(C)(C)C)ccc4Cl)cccc32)ccn1 [Example 73, hydrochloride]: 1 (yes)
CC(C)(C)C(=O)NCc1ccc(Cl)c(C(=O)Nc2cccc3c2cnn3C2CCOCC2)c1: 0 (no)
Cc1cc(-n2ncc3c(NC(=O)c4cc(CNC(=O)C(C)(C)C)ccc4Cl)cccc32)ccc1OC(F)(F)F: 1 (yes)
O=C(Nc1cccc2c1cnn2-c1ccc(C(F)(F)F)nc1)c1cc(CNC(=O)C2CCCC2)ccc1Cl: 1 (yes)

Identify whether the reported pIC50 of the following compound is 8 or greater: O=C(Nc1cccc2c1cnn2-c1ccc(C(F)(F)F)cc1)c1cc(CNC(=O)C2CCCC2)ccc1Cl
1 (yes)
